settings: buffer; pH 7.4; 200.0 µM
Each entry below carries its reported solubility kinetic.

Recorded results for 4 compounds are shown here.
> print(dat)
                                   compound      observed
1  O=C(CSc1nnc(Nc2ccccc2F)s1)NC1CCS(=O)(=O)C1 (configuration not stated)  > 60.4 µg/mL
2           O=C(CSc1c[nH]c2ccccc12)NC1CCCC1  > 41.2 µg/mL
3  CCOC(=O)Cc1csc(NC(=O)CSc2nc(C)cc(C)n2)n1    > 55 µg/mL
4   CC(=O)Oc1ccc2oc(-c3ccccc3)c(C(N)=O)c2c1     1.4 µg/mL

Incoming: Provide measured solubility kinetic value, entry: `COc1ccc(S(=O)(=O)Nc2cc(S(=O)(=O)N3CCOCC3)ccc2OC)cc1`
Outgoing: 37.3 µg/mL

Incoming: Fill in solubility kinetic for record `Cc1onc(-c2ccccc2)c1C(=O)NCc1ccc(F)cc1`
Outgoing: 7 µg/mL

Incoming: Name the recorded solubility kinetic of the item `Cc1[nH]n2cnnc2c(=O)c1Br.O=S(=O)(O)O` in your answer.
Outgoing: > 49.1 µg/mL

Incoming: Report measured solubility kinetic; entry is `Cc1ccc2nc(C)c(C(=O)O)cc2c1`
Outgoing: > 30.2 µg/mL
